The origin of these recorded values is patent US9265773B2.

- System: HCV replicon genotype 1a
- PROCEDURE SUMMARY: microbe, parasite or virus in culture
- Format: cell-based
- COND: genotype 1a replicon cells, incubated 96 hours, NS3/4A ELISA readout
MEASURED ENDPOINT: log10 IC50 (log10 of the value in nM)
Please interpret these as log10 of IC50 where IC50 is in nM.

Previously resolved entries follow.
CNC(=O)c1c(-c2ccc(F)cc2)oc2cc(N(C)S(C)(=O)=O)c(-c3ccc4c(n3)-c3cc5c(F)cccc5n3C(C(N)=O)O4)cc12 (centres unmarked) [Compound 106]    0.74
CNC(=O)c1c(-c2ccc(F)cc2)oc2cc(N(C)S(C)(=O)=O)c(-c3ccc4c(n3)-c3cc5c(F)cccc5n3C(CNC(=O)[C@@H](NC(=O)OC)C(C)C)O4)cc12 (some centres unmarked)    0.54
CNC(=O)c1c(-c2ccc(F)cc2)oc2cc(N(C)S(C)(=O)=O)c(-c3ccc4c(n3)-c3cc5c(F)cccc5n3C(CNC(C)=O)O4)cc12 (centres unmarked) [Compound 130]    0.48

Request: What value of log10 IC50 has been recorded for this entry: CNC(=O)c1c(-c2ccc(F)cc2)oc2cc(N(C)S(C)(=O)=O)c(-c3ccc4c(n3)-c3cc5c(F)cccc5n3C(C(=O)NC)O4)cc12 (centres unmarked)
Response: 0.48

Request: Can you handle CNC(=O)c1c(-c2ccc(F)cc2)oc2cc(N(C)S(C)(=O)=O)c(-c3ccc4c(n3)-c3cc5c(F)cccc5n3C(CN(C)C)O4)cc12 (centres unmarked) next?
Response: 0.71

Request: Can you handle CNC(=O)c1c(-c2ccc(F)cc2)oc2cc(N(C)S(C)(=O)=O)c(-c3ccc4c(n3)-c3cc5c(F)cccc5n3C(C)(CO)O4)cc12 (centres unmarked) next?
Response: 0.62

Request: Can you handle CNC(=O)c1c(-c2ccc(F)cc2)oc2cc(N(C)S(C)(=O)=O)c(-c3ccc4c(n3)-c3cc5c(F)cccc5n3C(CNC(=O)[C@@H]3CCCN3C(=O)OC)O4)cc12 (some centres unmarked) [Compound 124] next?
Response: 1.28
